Where do the numbers come from? From patent US20240166610A1.

test: In vivo pharmacokinetic evaluation in CD-1 mice; conditions: male, mouse, plasma, 2 mg/kg, IV, dose IV/PO 2/10 mg/kg, read-out: Half-life T1/2 (IV) (converted)
Where a name gives a salt, the structure may show the parent alone.
MEASUREMENT_NAME: half-life (h)

- COMPOUND: "Cc1cc(N[C@@H]2CCCN(C)C2)nnc1-c1ccc2sccc2c1O [Hydrochloride of compound 20]"
  OBSERVED_VALUE: 3.26
- COMPOUND: "Cc1cc(N[C@@H]2CCCC[C@H]2O)nnc1-c1ccc2sccc2c1O [Hydrochloride of compound 60]"
  OBSERVED_VALUE: 1.45

###

target: hERG potassium ion channel (Homo sapiens, UniProt Q12809); assay: Inhibition test on hERG potassium ion channel (automated patch clamp, CHO-hERG cells); details: Qpatch, highest test concentration 40.00 μM
Sequence (Q12809 whole entry): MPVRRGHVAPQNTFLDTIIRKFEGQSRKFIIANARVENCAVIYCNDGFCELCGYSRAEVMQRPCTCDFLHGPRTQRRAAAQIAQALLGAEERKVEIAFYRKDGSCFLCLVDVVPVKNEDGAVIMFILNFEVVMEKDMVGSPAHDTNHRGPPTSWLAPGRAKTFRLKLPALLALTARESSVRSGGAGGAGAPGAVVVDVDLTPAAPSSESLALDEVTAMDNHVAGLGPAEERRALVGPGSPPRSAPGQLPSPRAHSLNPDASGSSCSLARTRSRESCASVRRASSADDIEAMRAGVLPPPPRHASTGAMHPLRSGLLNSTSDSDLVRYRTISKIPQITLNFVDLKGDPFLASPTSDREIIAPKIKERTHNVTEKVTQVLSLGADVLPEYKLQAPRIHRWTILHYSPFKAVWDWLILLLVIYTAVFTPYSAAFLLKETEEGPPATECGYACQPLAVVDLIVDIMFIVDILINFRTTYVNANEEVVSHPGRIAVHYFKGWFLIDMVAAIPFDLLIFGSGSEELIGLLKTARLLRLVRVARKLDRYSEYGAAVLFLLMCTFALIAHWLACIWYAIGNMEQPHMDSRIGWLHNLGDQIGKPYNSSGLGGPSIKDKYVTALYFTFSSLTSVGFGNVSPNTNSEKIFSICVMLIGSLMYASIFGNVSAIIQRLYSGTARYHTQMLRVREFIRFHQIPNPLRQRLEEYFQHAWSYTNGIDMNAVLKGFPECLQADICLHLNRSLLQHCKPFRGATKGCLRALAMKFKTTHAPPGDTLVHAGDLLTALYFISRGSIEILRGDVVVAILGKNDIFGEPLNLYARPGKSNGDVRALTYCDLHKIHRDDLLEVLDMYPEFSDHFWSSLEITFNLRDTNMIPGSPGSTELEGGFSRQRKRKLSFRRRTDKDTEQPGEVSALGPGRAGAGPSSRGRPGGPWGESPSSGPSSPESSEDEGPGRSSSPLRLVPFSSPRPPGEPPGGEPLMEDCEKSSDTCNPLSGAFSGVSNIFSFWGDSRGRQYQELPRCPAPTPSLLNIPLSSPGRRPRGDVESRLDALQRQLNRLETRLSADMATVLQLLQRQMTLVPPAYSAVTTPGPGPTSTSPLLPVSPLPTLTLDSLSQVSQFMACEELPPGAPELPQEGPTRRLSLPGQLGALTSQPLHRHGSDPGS
pIC50: −log10 of the molar value. Structures can show the parent of a compound that is named as a salt.
MEASUREMENT_NAME: pIC50

- COMPOUND: "Cc1cc(N[C@@H]2CCCN(C)C2)nnc1-c1ccc2sccc2c1O [Hydrochloride of compound 20]"
  CENSORING_OPERATOR: "="
  OBSERVED_VALUE: 4.99
- COMPOUND: "Cc1cc(N[C@@H]2CCCN(CC#N)C2)nnc1-c1ccc(C2CC2)cc1O [Compound 23]"
  CENSORING_OPERATOR: "<"
  OBSERVED_VALUE: 4.40
- COMPOUND: "Cc1cc(N[C@@H]2CCCN(C3COC3)C2)nnc1-c1ccc(-c2ccc(F)cc2)cc1O [Compound 21]"
  CENSORING_OPERATOR: "="
  OBSERVED_VALUE: 4.97
- COMPOUND: "Cc1cc(NC[C@@H](C)O)nnc1-c1ccc2sccc2c1O [Hydrochloride of compound 57]"
  CENSORING_OPERATOR: "<"
  OBSERVED_VALUE: 4.40
- COMPOUND: "Cc1cc(N[C@@H]2CCCC[C@H]2O)nnc1-c1ccc2sccc2c1O [Hydrochloride of compound 60]"
  CENSORING_OPERATOR: "<"
  OBSERVED_VALUE: 4.40
- COMPOUND: "Cc1cc(N[C@@H]2CCCN(CC#N)C2)nnc1-c1ccc2sccc2c1O [Compound 53]"
  CENSORING_OPERATOR: "="
  OBSERVED_VALUE: 4.77
- COMPOUND: "Cc1cc(N[C@@H]2CCCN(C3COC3)C2)nnc1-c1ccc(C2CC2)cc1O [Compound 22]"
  CENSORING_OPERATOR: "<"
  OBSERVED_VALUE: 4.40
- COMPOUND: "Cc1cc(N[C@@H]2CCCN(CC#N)C2)nnc1-c1ccc2c(c1O)CCC2 [Compound 12a]"
  CENSORING_OPERATOR: "="
  OBSERVED_VALUE: 4.50

###

Reported log10 of Vd values follow for various molecules
assay: In vivo pharmacokinetic evaluation in SD rats; conditions: male, rat, plasma, 1 mg/kg, dose IV/PO 1/2 mg/kg, read-out: Tissue distribution Vdss
Structures can show the parent of a compound that is named as a salt.
MEASUREMENT_NAME: log10 of Vd (log10 of the value in L/kg)

- MOLECULE: "Cc1cc(N[C@@H]2CCCC[C@H]2O)nnc1-c1ccc2sccc2c1O [Hydrochloride of compound 60]"
  log10 of Vd: -0.40
- MOLECULE: "Cc1cc(N[C@@H]2CCCN(C(C)C)C2)nnc1-c1ccc2sccc2c1O [Compound 39]"
  log10 of Vd: 0.42
- MOLECULE: "Cc1cc(N[C@@H]2CCCN(CC#N)C2)nnc1-c1ccc2sccc2c1O [Compound 53]"
  log10 of Vd: -0.10
- MOLECULE: "Cc1cc(N[C@@H]2CCCN(C)C2)nnc1-c1ccc2sccc2c1O [Hydrochloride of compound 20]"
  log10 of Vd: 0.83
- MOLECULE: "Cc1cc(N[C@@H]2CCCN(C3COC3)C2)nnc1-c1ccc2sccc2c1O [Compound 26]"
  log10 of Vd: -0.10
- MOLECULE: "Cc1cc(N[C@@H]2CCCN(C3CCOC3)C2)nnc1-c1ccc2sccc2c1O (stereo partly drawn) [Formate of compound 42]"
  log10 of Vd: -0.08

###

Entries annotated with measured Vd
test: In vivo pharmacokinetic evaluation in CD-1 mice; details: male, mouse, plasma, 2 mg/kg, dose IV/PO 2/10 mg/kg, read-out: Tissue distribution Vdss
Structures can show the parent of a compound that is named as a salt.

- COMPOUND: "Cc1cc(N[C@@H]2CCCC[C@H]2O)nnc1-c1ccc2sccc2c1O [Hydrochloride of compound 60]"
  Vd / L/kg: 1.08
- COMPOUND: "Cc1cc(N[C@@H]2CCCN(C)C2)nnc1-c1ccc2sccc2c1O [Hydrochloride of compound 20]"
  Vd / L/kg: 7.03

###

experiment: In vivo pharmacokinetic evaluation in SD rats; conditions: male, rat, plasma, dose IV/PO 1/2 mg/kg, read-out: Peak concentration Cmax
Counter-ions that a name gives are not always drawn.

- COMPOUND: "Cc1cc(N[C@@H]2CCCN(C3COC3)C2)nnc1-c1ccc2sccc2c1O"
  Cmax (nM): 2910
- COMPOUND: "Cc1cc(N[C@@H]2CCCN(CC#N)C2)nnc1-c1ccc2sccc2c1O"
  Cmax (nM): 1520
- COMPOUND: "Cc1cc(N[C@@H]2CCCN(C)C2)nnc1-c1ccc2sccc2c1O [Hydrochloride of compound 20]"
  Cmax (nM): 204
- COMPOUND: "Cc1cc(N[C@@H]2CCCC[C@H]2O)nnc1-c1ccc2sccc2c1O [Hydrochloride of compound 60]"
  Cmax (nM): 2610
- COMPOUND: "Cc1cc(N[C@@H]2CCCN(C(C)C)C2)nnc1-c1ccc2sccc2c1O"
  Cmax (nM): 573
- COMPOUND: "Cc1cc(N[C@@H]2CCCN(C3CCOC3)C2)nnc1-c1ccc2sccc2c1O (stereo partly drawn) [Formate of compound 42]"
  Cmax (nM): 2100

###

assay: In vivo pharmacokinetic evaluation in SD rats; conditions: male, rat, plasma, 1 mg/kg, IV, dose IV/PO 1/2 mg/kg, read-out: Half-life T1/2 (IV) (converted)
Counter-ions that a name gives are not always drawn.
# note: boundary value 2 h maps to 0.0; half-life below it maps to 1.0

- COMPOUND: "Cc1cc(N[C@@H]2CCCC[C@H]2O)nnc1-c1ccc2sccc2c1O [Hydrochloride of compound 60]"
  LABEL: 1.0
- COMPOUND: "Cc1cc(N[C@@H]2CCCN(C)C2)nnc1-c1ccc2sccc2c1O [Hydrochloride of compound 20]"
  LABEL: 1.0
- COMPOUND: "Cc1cc(N[C@@H]2CCCN(CC#N)C2)nnc1-c1ccc2sccc2c1O [Compound 53]"
  LABEL: 1.0
- COMPOUND: "Cc1cc(N[C@@H]2CCCN(C(C)C)C2)nnc1-c1ccc2sccc2c1O [Compound 39]"
  LABEL: 0.0
- COMPOUND: "Cc1cc(N[C@@H]2CCCN(C3CCOC3)C2)nnc1-c1ccc2sccc2c1O (stereo partly drawn) [Formate of compound 42]"
  LABEL: 1.0
- COMPOUND: "Cc1cc(N[C@@H]2CCCN(C3COC3)C2)nnc1-c1ccc2sccc2c1O [Compound 26]"
  LABEL: 1.0

###

assay: In vivo pharmacokinetic evaluation in SD rats; settings: male, rat, plasma, 1 mg/kg, dose IV/PO 1/2 mg/kg, read-out: Clearance rate CL
Structures can show the parent of a compound that is named as a salt.
Each record here notes measured clearance.

- COMPOUND: "Cc1cc(N[C@@H]2CCCN(C(C)C)C2)nnc1-c1ccc2sccc2c1O [Compound 39]"
  OUTPUT_UNIT: "mL/min/kg"
  clearance: 15.3
- COMPOUND: "Cc1cc(N[C@@H]2CCCN(C)C2)nnc1-c1ccc2sccc2c1O [Hydrochloride of compound 20]"
  OUTPUT_UNIT: "mL/min/kg"
  clearance: 48.5
- COMPOUND: "Cc1cc(N[C@@H]2CCCN(C3COC3)C2)nnc1-c1ccc2sccc2c1O [Compound 26]"
  OUTPUT_UNIT: "mL/min/kg"
  clearance: 12.3
- COMPOUND: "Cc1cc(N[C@@H]2CCCN(C3CCOC3)C2)nnc1-c1ccc2sccc2c1O (stereo partly drawn) [Formate of compound 42]"
  OUTPUT_UNIT: "mL/min/kg"
  clearance: 6.08
- COMPOUND: "Cc1cc(N[C@@H]2CCCC[C@H]2O)nnc1-c1ccc2sccc2c1O [Hydrochloride of compound 60]"
  OUTPUT_UNIT: "mL/min/kg"
  clearance: 10
- COMPOUND: "Cc1cc(N[C@@H]2CCCN(CC#N)C2)nnc1-c1ccc2sccc2c1O [Compound 53]"
  OUTPUT_UNIT: "mL/min/kg"
  clearance: 10.3

###

AUC(0-t) values by entry
experiment: In vivo pharmacokinetic evaluation in CD-1 mice; settings: male, mouse, plasma, PO, dose IV/PO 1/2 mg/kg, read-out: Area under drug-time curve AUC0-last PO
MEASUREMENT_NAME: AUC(0-t) (µM·h)

- COMPOUND: "Cc1cc(N[C@@H]2CCCN(C)C2)nnc1-c1ccc(-c2ccc(F)cc2)cc1O [Compound 4]"
  OBSERVED_VALUE: 54.3
- COMPOUND: "Cc1cc(N[C@@H]2CCCN(C3COC3)C2)nnc1-c1ccc2sccc2c1O [Compound 26]"
  OBSERVED_VALUE: 3.9
- COMPOUND: "Cc1cc(N[C@@H]2CCCN(CC#N)C2)nnc1-c1ccc(C2CC2)cc1O [Compound 23]"
  OBSERVED_VALUE: 10.4
- COMPOUND: "Cc1cc(N[C@@H]2CCCN(C3COC3)C2)nnc1-c1ccc(C2CC2)cc1O [Compound 22]"
  OBSERVED_VALUE: 5.33
